Here, each record is paired with measured protein stability index data.
# assay-details: protein stability index of a GFP-peptide fusion (yeast GPS) (PSI 1-4); higher = more stable; sorted into four equal gates, so the index is relative within each strain
# conditions-used: ubr1∆
Please reply with the number alone, leaving off any unit.

* DPNLELDQVGVPKSIAK [RPO21] | 3.11
* VIQIVTGIFMAMHYSSN [COB] | 1.46
* DLLILTRSIKEKWLLNQ [SRB6] | 1.24
* STATRNVTMIDDLIHFT [COR1] | 2.89
* MKAVRKVAEVKKLEGTI [RPT4] | 3.56
* PGVLPVGIDTHTATDIY [SNF2] | 2.69
* MEEEQQRQERLRQQQQQ [RPN10] | 3.39

Next up:
Ask: # lookup: protein stability index of MSLINDAMVTRTPVIIS [SMD2]
Result: 1.52
